// data source = PubChem BioAssay (NCI)

# System: HOP-62 NSCLC
# assay.overview: NCI tumour cell line growth inhibition, 48 h
Where a SMILES comes first, the peptide text is derived from it. The star is where a group is joined. Boc = CC(C)(C)OC(=O)*
Each entry below carries its recorded TGI.

- compound: "O=C1C=CC(=O)N1C1CCCCCCCCCCC1"
  TGI: "> 100 µM"
- compound: "O=c1[nH]c(=O)n(C2CC(O)C(CO)O2)c2nc3cc4ccccc4cc3nc12 (configuration not stated)"
  TGI: "> 100 µM"
- compound: "CC(C)(C)OC(=O)NC(Cc1ccc(O)cc1)C(=O)NC(CCCCN)C(=O)O (stereo not drawn) (Boc-Tyr-Lys-OH; configuration not given here)"
  TGI: "39 µM"
- compound: "CN(C)Cc1cc(N=Nc2ccccc2)ccc1O"
  TGI: "> 100 µM"
- compound: "CCN1CCN(c2cc(C)nc(N(CCNc3ccnc4cc(Cl)ccc34)Cc3ccc4c(c3)OCO4)n2)CC1"
  TGI: "5.21 µM"
- compound: "C#C[C@]1(O)CC[C@H]2[C@@H]3CCC4=CC(=NCCOC(=O)c5cccc6c(=O)c7ccccc7[nH]c56)CC[C@@H]4[C@H]3CC[C@@]21C"
  TGI: "> 100 µM"
- compound: "COc1cc(C2SC(N)=Nc3c2c(C)nn3C(=O)c2ccc(Cl)cc2)cc(OC)c1OC (configuration not stated)"
  TGI: "> 10 µM"
- compound: "Cc1cc(S(=O)(=O)n2ccnc2Oc2cccc(Cl)c2)c(SSc2cc(Cl)c(C)cc2S(=O)(=O)n2ccnc2Oc2cccc(Cl)c2)cc1Cl"
  TGI: "38.7 µM"
- compound: "Cc1cc2[nH]c(Cl)c(/C=C3\\C(=O)Nc4ccccc43)c2cc1O"
  TGI: "25.9 µM"
- compound: "CN1CCN([C@H]2C[C@H]3[C@@H]4CC=C5C[C@@H](N6CCCC6)CC[C@]5(C)[C@H]4CC[C@]3(C)[C@H]2O)CC1"
  TGI: "> 100 µM"
- compound: "Cc1ccc(C(=O)Nc2ccccc2)cc1N=NN(C)C"
  TGI: "> 100 µM"
- compound: "C=C1C(O)C23CCC4C(C(=O)O)(C(=O)O)CC(OC5OC(CO)C(O)C(OC(=O)CCc6ccccc6)C5NC(=O)CC(C)C)CC4(C)C2CCC1(O)C3 (configuration not stated)"
  TGI: "> 100 µM"
- compound: "COc1ccc(C(N)=O)c(OC)c1OCc1ccccc1"
  TGI: "> 100 µM"
- compound: "C/C(=N\\NC1=NCCN1)c1cn(C2=NCCN2)nc1C"
  TGI: "> 100 µM"
- compound: "CCOC(=O)C1(C)CCc2sc(N)c(C#N)c21 (configuration not stated)"
  TGI: "> 100 µM"
- compound: "O=C(Oc1ccc(S(=O)(=O)F)cc1F)c1ccccc1Cl"
  TGI: "> 100 µM"
- compound: "O=[N+]([O-])c1ccccc1S(=O)(=O)c1cc(O)cc2c1NCCC2"
  TGI: "40.3 µM"
- compound: "OC1(c2ccccc2)c2ccccc2NC2=NCCN21 (configuration not stated)"
  TGI: "> 100 µM"
- compound: "Fc1cnc(NC2CC2)nc1-c1cnc2ccc(N3CCOCC3)cn12"
  TGI: "> 44.8 µM"
- compound: "O=C(Cn1ccnc1[N+](=O)[O-])c1ccccc1"
  TGI: "> 100 µM"
- compound: "CC(C)(C)C(=O)N(C(=S)OCc1ccccn1)c1ccccc1"
  TGI: "46.8 µM"
- compound: "C[N+](C)(CCNC(=O)c1cccc2cc3ccccc3nc12)Cc1ccc([N+](=O)[O-])cc1"
  TGI: "> 100 µM"
